The measurements presented in this section are drawn from paper PMC6940745.

systemTested: Melanocortin-1 receptor (MC1R), human recombinant, in CHO-K1 cells (human) (UniProt Q01726)
Sequence (Q01726 whole entry): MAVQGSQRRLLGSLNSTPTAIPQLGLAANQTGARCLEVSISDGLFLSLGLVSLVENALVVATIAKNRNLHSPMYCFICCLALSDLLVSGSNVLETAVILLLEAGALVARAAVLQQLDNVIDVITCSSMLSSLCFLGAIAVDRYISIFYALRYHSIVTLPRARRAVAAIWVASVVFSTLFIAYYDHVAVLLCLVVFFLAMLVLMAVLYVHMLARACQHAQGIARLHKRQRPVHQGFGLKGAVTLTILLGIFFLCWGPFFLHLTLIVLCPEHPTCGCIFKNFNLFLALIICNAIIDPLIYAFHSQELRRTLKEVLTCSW
[ ]: non-standard residue; d: D form. The star is where a group is joined. N(indol-3-ylmethyl)Gly = O=C(O)CNCc1c[nH]c2ccccc12; Bz = O=C(c1ccccc1)*; NPr2 = CCCN(CCC)*
Could you please report measured EC50 of MC1R activation (cAMP HTRF assay, CHO-K1 cells expressing human MC1R) for the items listed next?
Give bare numbers, in nM.

For orientation, consider the following solved cases.
INSERT INTO assay_data (binder, measurementunits, testvalue) VALUES
  ('Bz-GH[dF]R[N(indol-3-ylmethyl)Gly]-NH2 [MC1R-agonist pentapeptide 7 (Bz-Gly-His-D-Phe-Arg-[N-(CH2-3-indolyl)Gly]-NH2)]', 'nM', 4.4),
  ('Bz-GH[dF]R[dW]-NPr2 (SMILES CCCN(CCC)C(=O)[C@@H](Cc1c[nH]c2ccccc12)NC(=O)[C@H](CCCNC(=N)N)NC(=O)[C@@H](Cc1ccccc1)NC(=O)[C@H](Cc1c[nH]cn1)NC(=O)CNC(=O)c1ccccc1) [MC1R-agonist pentapeptide 4 (Bz-Gly-His-D-Phe-Arg-D-Trp-N(Propyl)2)]', 'nM', 0.42);

Problem: Specify measured EC50 of MC1R activation (cAMP HTRF assay, CHO-K1 cells expressing human MC1R) for Bz-GH[dF]R[dF]-NH2 (SMILES N=C(N)NCCC[C@H](NC(=O)[C@@H](Cc1ccccc1)NC(=O)[C@H](Cc1c[nH]cn1)NC(=O)CNC(=O)c1ccccc1)C(=O)N[C@H](Cc1ccccc1)C(N)=O) [MC1R-agonist pentapeptide 6 (Bz-Gly-His-D-Phe-Arg-D-Phe-NH2)] .
Result: 1.79
